I'd be grateful if you could share measured solubility (g/100 g solution) for these entries.
Protocol: xn = mol fraction of the nth substance listed, in the solute-free solvent
Condition info: 278.15 K; x2 = 0.7
Lab note: record the figure alone, no unit after it.

q: State its solubility (g/100 g solution): Cc1ncc(CO)c(CO)c1O.Cl + O + CCCO
a: 5.37

q: State its solubility (g/100 g solution): Cc1ncc(CO)c(CO)c1O.Cl + O + CC(C)O
a: 3.45

q: State its solubility (g/100 g solution): Cc1c(Br)c(=O)n(C2CCCC2)c2nc(Cl)ncc12 + C1CCOC1 + CCO
a: 2.85

q: State its solubility (g/100 g solution): Cc1c(Br)c(=O)n(C2CCCC2)c2nc(Cl)ncc12 + CC1=CC(=O)CC(C)(C)C1 + CC(C)O
a: 0.391

q: State its solubility (g/100 g solution): Cc1c(Br)c(=O)n(C2CCCC2)c2nc(Cl)ncc12 + CCOC(C)=O + CCO
a: 0.478

q: State its solubility (g/100 g solution): Cc1ncc(CO)c(CO)c1O.Cl + O + CC#N
a: 8.18

* * *

Protocol: xn = mol fraction of the nth substance listed, in the solute-free solvent
Condition info: 288.15 K; x2 = 0.8
Class satisfied: solubility (g/100 g solution) at least 5. Class not satisfied: solubility (g/100 g solution) below 5.

q: Is it the case that Cc1c(Br)c(=O)n(C2CCCC2)c2nc(Cl)ncc12 + CC1=CC(=O)CC(C)(C)C1 + CC(C)O has solubility (g/100 g solution) reaching or exceeding 5?
a: not satisfied

q: Is it the case that Cc1ncc(CO)c(CO)c1O.Cl + O + CC#N has solubility (g/100 g solution) reaching or exceeding 5?
a: satisfied

q: Is it the case that CCOC(=O)OC1=C(c2cc(C)ccc2C)C(=O)NC12CCC(OC)CC2 (configuration not stated) + CO + O has solubility (g/100 g solution) reaching or exceeding 5?
a: satisfied

q: Is it the case that CCOC(=O)OC1=C(c2cc(C)ccc2C)C(=O)NC12CCC(OC)CC2 (configuration not stated) + CC(C)=O + O has solubility (g/100 g solution) reaching or exceeding 5?
a: satisfied

q: Is it the case that COC(=O)C(N)CS.Cl (configuration not stated) + CCO + ClCCl has solubility (g/100 g solution) reaching or exceeding 5?
a: satisfied

* * *

Protocol: xn = mol fraction of the nth substance listed, in the solute-free solvent
Condition info: 308.15 K; x2 = 0.2
Class yes (1): solubility (g/100 g solution) at least 2. Class no (0): solubility (g/100 g solution) below 2.

q: Is it the case that CCOC(=O)OC1=C(c2cc(C)ccc2C)C(=O)NC12CCC(OC)CC2 (configuration not stated) + CCO + O has solubility (g/100 g solution) reaching or exceeding 2?
a: no (0)

q: Is it the case that CCOc1ccccc1C(N)=O + CCO + CC#N has solubility (g/100 g solution) reaching or exceeding 2?
a: yes (1)

q: Is it the case that CCOC(=O)OC1=C(c2cc(C)ccc2C)C(=O)NC12CCC(OC)CC2 (configuration not stated) + CC(C)=O + O has solubility (g/100 g solution) reaching or exceeding 2?
a: yes (1)

q: Is it the case that Cc1c(Br)c(=O)n(C2CCCC2)c2nc(Cl)ncc12 + CC1=CC(=O)CC(C)(C)C1 + CC(C)O has solubility (g/100 g solution) reaching or exceeding 2?
a: no (0)

q: Is it the case that N#CCNC(=O)c1cnccc1C(F)(F)F + CCOC(C)=O + CCO has solubility (g/100 g solution) reaching or exceeding 2?
a: yes (1)

q: Is it the case that CCOc1ccccc1C(N)=O + CO + CC#N has solubility (g/100 g solution) reaching or exceeding 2?
a: yes (1)

q: Is it the case that CCOC(=O)OC1=C(c2cc(C)ccc2C)C(=O)NC12CCC(OC)CC2 (configuration not stated) + CC(C)O + O has solubility (g/100 g solution) reaching or exceeding 2?
a: yes (1)

q: Is it the case that Cc1c(Br)c(=O)n(C2CCCC2)c2nc(Cl)ncc12 + CCOC(C)=O + CCO has solubility (g/100 g solution) reaching or exceeding 2?
a: no (0)

q: Is it the case that CCOC(=O)OC1=C(c2cc(C)ccc2C)C(=O)NC12CCC(OC)CC2 (configuration not stated) + CO + O has solubility (g/100 g solution) reaching or exceeding 2?
a: no (0)

q: Is it the case that CCOc1ccccc1C(N)=O + CC#N + CC(C)O has solubility (g/100 g solution) reaching or exceeding 2?
a: yes (1)

q: Is it the case that Cc1c(Br)c(=O)n(C2CCCC2)c2nc(Cl)ncc12 + C1CCOC1 + CCO has solubility (g/100 g solution) reaching or exceeding 2?
a: yes (1)

q: Is it the case that NC(=O)NC1NC(=O)NC1=O (configuration not stated) + O + CO has solubility (g/100 g solution) reaching or exceeding 2?
a: no (0)
